FYI, the data here is from ChEMBL document CHEMBL1157868.

Test system: Bovine viral diarrhea virus 1
Assay: Antiviral activity against Bovine viral diarrhea virus infected in MDBK cells assessed as protection against virus-induced cytopathogenicity after 5 days
Type: functional, organism-based
Details: Bovine viral diarrhea virus isolates and strains, 120 h
pEC50: −log10 of the molar value.
MEASURED ENDPOINT: pEC50

Answered examples (5):
CCOC(=O)c1cc2c(ccn3cc(CO)nc23)[nH]1: 4.27
CCOC(=O)c1cc2c(ccn3cc(C)nc23)n1C: 5.25
CCOC(=O)c1cc2c(ccn3c(Br)c(C)nc23)[nH]1: 4.10
CCOC(=O)c1cc2c(ccn3ccnc23)[nH]1: 5.30
COC(=O)c1cc2c(ccn3cc(C)nc23)n1C: 5.77

I: CCOC(=O)c1cc2c(ccn3cc(C(OCC)OCC)nc23)[nH]1
II: CCOC(=O)c1cc2c(ccn3cc(-c4ccccc4)nc23)[nH]1
III: CCOC(=O)c1cc2c(ccn3cc(CN(C)C)nc23)[nH]1
IV: CCOC(=O)c1cc2c(ccn3cc(C(F)(F)F)nc23)[nH]1
Exercise: Ascending sort, pEC50. Please, when replying, give the labels in the order that was requested.
Key: III, IV, II, I

A: CCOC(=O)c1cc2c(ccn3cc(C)nc23)[nH]1
B: CCOC(=O)c1cc2c(ccn3cc(CCl)nc23)[nH]1
C: CCOC(=O)c1cc2c(ccn3cc(C(C)C)nc23)[nH]1
D: Cc1cn2ccc3[nH]c(C(=O)O)cc3c2n1
E: CCOC(=O)c1cc2c(ccn3c(Br)cnc23)[nH]1
Exercise: Sort the compounds on pEC50; start with the lowest figure. The labels, placed in the requested order, form the answer.
Key: B, C, E, D, A
(B: 4.32, C: 4.64, E: 4.85, D: 5.29, A: 5.68)

1: CCOC(=O)c1cc2c(ccn3cc(C(C)(C)C)nc23)[nH]1
2: CCOC(=O)c1cc2c(ccn3cc(Br)nc23)[nH]1
3: CCCCOC(=O)c1cc2c(ccn3cc(C)nc23)[nH]1
4: COC(=O)c1cc2c(ccn3cc(C)nc23)[nH]1
Exercise: // ranking: key=pEC50, reverse=True List the labels in the requested order.
Key: 4, 3, 2, 1
(4: 5.96, 3: 5.68, 2: 4.88, 1: 4.30)

###

Assay: Selectivity index, CC50 for MDBK cells to EC50 for Bovine viral diarrhea virus
Assay type: toxicity, cell-based
Conditions: cattle, read-out: Ratio CC50/EC50
MEASURED ENDPOINT: selectivity ratio

CCOC(=O)c1cc2c(ccn3cc(C(C)(C)C)nc23)[nH]1: > 2

Exercise: Give the reported value of selectivity ratio for this record: COC(=O)c1cc2c(ccn3cc(C)nc23)n1C
Key: > 60.6

Exercise: // Input: CCOC(=O)c1cc2c(ccn3cc(CO)nc23)[nH]1 . Output its selectivity ratio only.
Key: > 1.9

Exercise: Complete the entry with selectivity ratio for Cc1cn2ccc3[nH]c(C(=O)O)cc3c2n1
Key: > 19.6

###

Reported values of selectivity ratio for individual entries
Assay: Selectivity index, CC50 for MDBK cells to EC50 for Bovine viral diarrhea virus
Type: toxicity, cell-based
Details: cattle, read-out: Ratio CC50/EC50

Look over these answered cases.
CCOC(=O)c1cc2c(ccn3cc(CCl)nc23)[nH]1: > 2.1
CCOC(=O)c1cc2c(ccn3cc(CN(C)C)nc23)[nH]1: > 2.2
CCOC(=O)c1cc2c(ccn3cc(C)nc23)n1C: > 17.9
COC(=O)c1cc2c(ccn3cc(C)nc23)[nH]1: > 87.2
CCOC(=O)c1cc2c(ccn3cc(-c4cccc(OC)c4)nc23)[nH]1: 71

# evaluate next
Exercise: Quote selectivity ratio reported for CCCCOC(=O)c1cc2c(ccn3cc(C)nc23)[nH]1 please.
Key: 41.8

###

Assay: Selectivity index, CC50 for MDBK cells to EC50 for Bovine viral diarrhea virus
Format: toxicity, cell-based
Conditions: cattle, read-out: Ratio CC50/EC50
MEASURED ENDPOINT: selectivity ratio

CCOC(=O)c1cc2c(ccn3c(Br)c(C)nc23)[nH]1: > 1.3
CCOC(=O)c1cc2c(ccn3cc(C)nc23)[nH]1: > 47.6
Cc1cn2ccc3[nH]c(CO)cc3c2n1: > 2.3
CCOC(=O)c1cc2c(ccn3cc(C(C)C)nc23)[nH]1: > 4.3
CCOC(=O)c1cc2c(ccn3cc(-c4ccccc4)nc23)[nH]1: > 27.1

Exercise: State its selectivity ratio for this compound: CCOC(=O)c1cc2c(ccn3cc(C(OCC)OCC)nc23)[nH]1
Key: 46.6

Exercise: Supply measured selectivity ratio of CCOC(=O)c1cc2c(ccn3c(Br)cnc23)[nH]1 in your reply.
Key: > 7.1

Exercise: Identify measured selectivity ratio corresponding to CCOC(=O)c1cc2c(ccn3c([N+](=O)[O-])c(C)nc23)[nH]1
Key: > 1.5

Exercise: Give selectivity ratio for CCOC(=O)c1cc2c(ccn3cc(Br)nc23)[nH]1
Key: > 7.6

Exercise: Fill in selectivity ratio for record CCOC(=O)c1cc2c(ccn3cc(C=O)nc23)[nH]1
Key: > 4.6

Exercise: Give reported selectivity ratio value for CCOC(=O)c1cc2c(ccn3ccnc23)[nH]1
Key: > 20

Exercise: Given CCOC(=O)c1cc2c(ccn3cc(C(F)(F)F)nc23)[nH]1 , respond with its selectivity ratio.
Key: > 7.8

###

Tested on: Bovine viral diarrhea virus 1
Experiment: Antiviral activity against Bovine viral diarrhea virus infected in MDBK cells assessed as protection against virus-induced cytopathogenicity after 5 days
Assay type: functional, organism-based
Settings: Bovine viral diarrhea virus isolates and strains, 120 h
MEASURED ENDPOINT: EC50 (µM)

P: CCOC(=O)c1cc2c(ccn3c([N+](=O)[O-])c(C)nc23)[nH]1
Q: CCOC(=O)c1cc2c(ccn3cc(C=O)nc23)[nH]1
R: CCOC(=O)c1cc2c(ccn3cc(-c4cccc(OC)c4)nc23)[nH]1
S: Cc1cn2ccc3[nH]c(CO)cc3c2n1
Exercise: Exam item: list the entries in increasing order of EC50. Sort and list the labels as requested.
Key: R, Q, S, P
(R: 0.4 µM, Q: 21.8 µM, S: 43.9 µM, P: 64.8 µM)
